System: E. cloacae 118564
Assay type: cell-based, Enterobacter cloacae
APPLIED_CONDITIONS: novobiocin in combination with the UTBLP
Non-standard residues stand in square brackets, D forms with d. Residues, ends and D or L forms follow the SMILES beside them. *: point of attachment. Lys(Me2) = CN(C)CCCC[C@H](N)C(=O)O; Octanoyl = CCCCCCCC(=O)*
REPORTED_METRIC: MICantibiotic [MICcombo]
I'd appreciate it if you included the unit after the number.

# lookup: CCCCCCCC(=O)NCCCC[C@H](NC(=O)CCCCCCC)C(=O)N[C@@H](CCCCN(C)C)C(=O)N[C@@H](CCCCN(C)C)C(=O)N[C@@H](CCCCN(C)C)C(=O)N[C@@H](CCCCN(C)C)C(N)=O [UTBLP 7] (Octanoyl-K(Octanoyl)[Lys(Me2)][Lys(Me2)][Lys(Me2)][Lys(Me2)]-NH2) on E. cloacae 118564, MICantibiotic [MICcombo] = 4 µg/mL

Proceeding to the next molecule to report its MICantibiotic [MICcombo].
Per the reported E. cloacae 118564 data, `CCCCCCCC(=O)N[C@@H](CCCCNC)C(=O)NCCCN(CCCNC(=O)[C@H](CCCCNC)NC(=O)CCCCCCC)CC(=O)N[C@@H](CCCCNC)C(N)=O` has MICantibiotic [MICcombo] of 8 µg/mL
